ASSAY INFO: qHTS assay to identify small molecule antagonists of the retinoic acid receptor (RAR) signaling pathway (AID 1159552; further: nearly all actives have a fitted effect of over 50% in size)
TEST SETTINGS: C3RL4 RARE luciferase reporter, retinol-stimulated, 6 h; series mostly up to 92.4 µM
Inconclusive results are not listed. Calls of active or inactive are those of the source. The call rests on the fitted dose curve; in most records, active means well fitted inhibition curve with a large enough effect in the repeat runs; inconclusive means weak or mixed curves, or effect the other way; inactive means no such curve, though single readings can be large or run the other way.
Give one outcome, nothing more. List: y = active, n = inactive

MOLECULE	ANSWER LABEL
Cc1cc(C)c(O)c(C(C)(C)C)c1	n
Nc1cc([N+](=O)[O-])cc(Cl)c1O	n
C=COCCCC	n
CCC(C)(C)c1ccc(CC(C)CN2C[C@@H](C)O[C@@H](C)C2)cc1 (stereo partly drawn)	n
Cc1ccc(N=Nc2c(O)ccc3ccccc23)c(C)c1	n
Cn1c(=O)[nH]c2ncn(C)c2c1=O	n

Exercise: Query: recorded result category for "CCOC(=O)[C@H](O)[C@@H](O)C(=O)OCC" in this test
Solution: n

Exercise: Could you kindly confirm the outcome this assay logged for "CCN(CCC#N)c1ccc(N=Nc2ccc([N+](=O)[O-])cc2)cc1" ?
Solution: n

Exercise: Per the records of this test, what outcome belongs to CC(Cc1ccc(O)c(O)c1)C(C)Cc1ccc(O)c(O)c1 (stereo not drawn) ?
Solution: n

Exercise: State the result this test recorded for "CC(=O)Nc1ccc(N=Nc2cc(C)ccc2O)cc1" .
Solution: n

Exercise: For "CCCCCc1ccc(O)cc1" , which call appears in the assay record?
Solution: n

Exercise: Fill in: this test's call for "CCOc1ccc([N+](=O)[O-])cc1" is ___
Solution: n

Exercise: Could you check what this test reported for "CN1CCN(c2ccccc2/C=C2\SCCN(c3ccc(Cl)c(Cl)c3)C2=O)CC1" ?
Solution: y

Exercise: # outcome recorded in this test, key = "CCCCCCCCOC(=O)c1cc(O)c(O)c(O)c1"
Solution: n

Exercise: Could you check what this test reported for "Cc1ccc2nc(-c3ccc(N)cc3)sc2c1S(=O)(=O)O" ?
Solution: n

Exercise: Returns: the outcome recorded for "Nc1ccc2c(S(=O)(=O)O)cccc2c1S(=O)(=O)O" in this assay.
Solution: n

Exercise: # lookup: test call for "c1ccc(-c2nc3ccccc3[nH]2)cc1"
Solution: n

Exercise: For "CN(C)CCOc1ccc(/C(=C(/CCCl)c2ccccc2)c2ccccc2)cc1" , what call appears in the results of this test?
Solution: y
